- Experimental system: CCL3L1_HUMAN
- Assay summary: BLI
Below, each of the binders is paired with its reported Kd value.
The response must be a number in nM with no trailing unit.

Completed entries (count: 6):
[
  {
    "Binder": "P974_AMBCA (other) ENTQQEEQDYDYGTDTCPFPVLANKTNKAKFVGCHQKCNGGDQKLTDGTACYVVERKVWDRMTPMLWYECPLGECKNGVCEDLRKKEDCRKGNGEEK",
    "Observed result": 13.1
  },
  {
    "Binder": "P1180_AMBTR (other) EEPKDGYDYTEGCPFVVLGNGTHAKPAGCSHLCNGAPETLDDNMECYNVTEEVAKRMTPDIPYTCWLGWCSKGECKRDNRTEVCYRGSERE",
    "Observed result": 2.19
  },
  {
    "Binder": "P1182_AMBMA (other) EPKDDNDYGGGCPFVVLGNGTHAKPAGCSHLCNGAPETLDNIECYNVTEEVAKRMTPGIPYACWLGWCNKGECKRGNRTEVCYRGSEEE",
    "Observed result": 63.4
  },
  {
    "Binder": "P1243_AMBAM (other) RNHTEDNSTEYYDYEEARCACPARHLNNTNGTVLKLLGCHYFCNGTLCTAPDGYPCYNLTAQQVRTLTTYPNTSCAVGVCMKGTCVKNGTMEQCFKTP",
    "Observed result": 9.61
  },
  {
    "Binder": "P467_RHIPU (other) AEKSLDSDSSGEDYELWTQGCPFLVAENRTGFGTTVSCQHNCNGAIEKVPEGEPCYTIGEDGLGRMKLNLPYNCSLGECSGGVCVPNGRSDVCFKRTWEENNKAMA",
    "Observed result": 0.524
  },
  {
    "Binder": "P546_AMBCA (other) ENTQQEEEDYDYGTDTCPFPVLANKTNKAKFVGCHQKCNGGDQKLTDGTACYVVERKVWDRMTPMLWYSCPLGECKNGVCEDLRKKEECRKGNGEEK",
    "Observed result": 14.7
  }
]

For the binder P991_AMBCA (other) ENGEGTTQPDYDNSTDYYNYEDFKCTCPAPHLNNTNGTVMKPIGCYYTCNVTRCTAPDTYPCYNLTEHQAKNLTTSPTTLCAVGNCDHGICVPNGTKELCFKAPNLEE , what Kd is on record?
1.4

For the binder P1181_AMBMA (other) EEREDDNDYGGGCPFVVLGNGTHAKPAGCSHLCNGAPETLDNIECYNVTEEVAKRMTPDIPYTCWLGWCSKGECKRDNRTEVCYRGSERE , what Kd is on record?
100
